B1: ANKRD44 (parent)
chain: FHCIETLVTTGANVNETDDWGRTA

Variants of: B1
run-description: protein stability index of a GFP-peptide fusion (GPS, HEK-293T) (PSI 1-6); higher = more stable;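 note: lentivirally expressed fusions sorted by FACS into six bins by GFP to DsRed ratio, PSI derived from sequencing read proportions per bin multiplied by bin number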
condition-details: c terminus: a fixed tail appended
Answer each item with its documented protein stability index.
Numbers only.

mutation_name=N13V value=2.61

Parameters: items (list). Returns: protein stability index for each item.
1. V8P
2. A24V
3. T9N

A)
1. 3.48
2. 2.01
3. 2.56

Values were extracted from the supplement of paper PMC10567573.
